Consider the following compounds; for each one, report its normalized growth.
Experiment: chemical genetic growth profiling, strain panel (AID 1159580);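 note: tested at 20 µM; growth read once vehicle control cultures reached saturation at 30 °C; 1 = growth at the plate median or of vehicle wells; lower values mean less growth of the strain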
Details: S. cerevisiae deletion strains, growth OD, locus YBR023C, strain chs3, hits give low values
Among all 5,500 compounds or so, about 2,000 (36%) were called active. Not shown: some 18% with an inconclusive outcome. The list shows a part of the results.

The compound listed as `CC(C)N1C(=O)c2ccccc2NS1(=O)=O` shows normalized growth equal to 0.983 (inactive)

The compound listed as Oc1cc2c(cc1O)C(c1ccccc1)CNCC2 (configuration not stated) shows normalized growth equal to 0.998 (inactive)

The compound listed as `COc1cc(Cc2cnc(N)nc2N)cc(OC)c1OC` shows normalized growth equal to 1.01 (inactive)

The compound listed as CN1CCCCC1c1ccc(-c2cccnc2)nc1 (configuration not stated) shows normalized growth equal to 0.99 (inactive)

The compound listed as `O=C1C=CC(=O)c2ccccc21` shows normalized growth equal to 0.0634 (active)

The compound listed as `COc1cc(OC)c2c(OC)c(-c3ccc4c(c3)OCO4)c(=O)oc2c1` shows normalized growth equal to 0.943 (inactive)

The compound listed as `COc1cc([C@@H]2c3cc4c(cc3[C@H](O)[C@H]3COC(=O)[C@H]23)OCO4)cc(OC)c1OC` shows normalized growth equal to 1.01 (inactive)

====

Experiment: chemical genetic growth profiling, strain panel (AID 1159580);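 note: tested at 20 µM; growth read once vehicle control cultures reached saturation at 30 °C; 1 = growth at the plate median or of vehicle wells; lower values mean less growth of the strain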
Details: S. cerevisiae deletion strains, growth OD, locus YLR058C, strain SHM2, hits give low values
About 2,000 (36%) of roughly 5,500 compounds were called active. Roughly 18% stayed inconclusive and do not appear here. This is one part of the list.
parameter: normalized growth
API note: the answer field is a bare number with no unit suffix.

The compound listed as `CC(C)Cn1c(=O)n(C)c(=O)c2[nH]cnc21` shows normalized growth equal to 0.991

The compound listed as `COc1ccc([C@@H](C)C(=O)c2ccc(O)cc2O)cc1` shows normalized growth equal to 0.977

The compound listed as C=C(C)C1Cc2c(ccc(C(=O)O)c2O)O1 (stereo unspecified) shows normalized growth equal to 1

The compound listed as `COC(=O)c1cc(OC)c(=O)c2c(OC)c(OC)ccc2c1` shows normalized growth equal to 1.03

The compound listed as C[C@]12[C@H](O)CC3C(CC[C@@H]4C[C@@H](O)CC[C@]34C)[C@@]1(O)CC[C@@H]2C1=CC(=O)OC1 (stereo partly specified) shows normalized growth equal to 1.02

The compound listed as `CC(=O)Nc1c(I)cc(I)c(C(=O)O)c1I` shows normalized growth equal to 0.994

====

Test: chemical genetic growth profiling, strain panel (AID 1159580);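 note: tested at 20 µM; growth read once vehicle control cultures reached saturation at 30 °C; 1 = growth at the plate median or of vehicle wells; lower values mean less growth of the strain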
Conditions: S. cerevisiae deletion strains, growth OD, locus YPL106C, strain sse1, hits give low values
In all, about 5,500 compounds went through this assay and about 2,000 (36%) were called active. About 18% were inconclusive and are not listed. The list shows a part of the results.
parameter: normalized growth
API note: the answer field is a bare number with no unit suffix.

The molecule listed as `CC(=O)c1c(O)cc(O)cc1O` shows normalized growth equal to 0.958

The molecule listed as CC12CCC(O)CC1CCc1ccccc12 (configuration not stated) shows normalized growth equal to 1.01

The molecule listed as `O=c1c(O)c(-c2ccccc2)oc2ccc3occc3c12` shows normalized growth equal to 0.769

The molecule listed as CC1CC(OC(=O)c2ccccc2O)CC(C)(C)C1 (configuration not stated) shows normalized growth equal to 0.974

The molecule listed as `O=c1c(O)c(-c2ccccc2)oc2cc(O)ccc12` shows normalized growth equal to 0.65

The molecule listed as `O=c1c(O)c(-c2ccc(O)cc2)oc2ccccc12` shows normalized growth equal to 0.843

The molecule listed as `CN1CCC[C@H]1c1cccnc1` shows normalized growth equal to 1
